Test system: histone modifications in 2102EP cells
Experiment: Mass spectrometry analysis of histone modifications (Mod Spec)
Format: cell-based, Human
Conditions: 2102EP cells; Mod Spec raw data
Measured quantity: H3: R42UN, % of peptide pool (%)

- CCCc1cc(C)[nH]c(=O)c1CNC(=O)c1cc(-c2ccnc(N3CCN(C)CC3)c2)cc2c1cnn2C(C)C: 96.8039
- Clc1ccc(N/N=C(\c2ccccc2)c2ccccn2)nc1: 98.1041
- Cc1ncsc1-c1ccc(CNC(=O)[C@@H]2C[C@@H](O)CN2C(=O)[C@@H](NC(=O)COCCOCCOCCNC(=O)C[C@@H]2N=C(c3ccc(Cl)cc3)c3c(sc(C)c3C)-n3c(C)nnc32)C(C)(C)C)cc1: 98.6131
- O=C1C(=Cc2cccnc2)C(=O)c2ccccc21: 97.0223
- Cn1cc(CNCC2CCN(c3ncc(C(=O)NO)cn3)CC2)c2ccccc21: 97.1374
- CN1C(=O)[C@@]23C[C@]4([C@]56C[C@@]78SS[C@@](CO)(C(=O)N7[C@H]5Nc5ccccc56)N(C)C8=O)c5ccccc5N[C@@H]4N2C(=O)[C@]1(CO)SS3: 97.7541
- Cc1cc(=O)n(C)c2cc(N3C(=O)CC[C@H](NS(=O)(=O)CC(C)C)[C@H]3c3ccc(Cl)cc3)ccc12: 97.9783
